- Tested on: RSV (Long)
- protocol notes: RSV cytopathic effect (CPE)-based viral replication assay in HEp-2 cells
- study conditions: human respiratory syncytial virus, 72 h; HEp-2 cells infected with RSV Long at MOI 0.015, 3 days, cell viability by CellTiter-Glo; read-out: Ec50 (nM) Example A
Each record here notes measured EC50.

compound: O=c1n(Cc2nc(OCC3CCOC3)c3ccc(Cl)cc3n2)c2cnccc2n1C1CCS(=O)(=O)C1 (stereo not drawn)
EC50 / nM: 300
//
compound: CN(CC1CCOC1)c1nc(Cn2ccc3nccn3c2=O)nc2ccccc12 (stereo not drawn)
EC50 / nM: 7700
//
compound: Cc1cc(CN(C)c2nc(CN3C(=O)N(C4CC4)Cc4ccccc43)nc3ccccc23)on1
EC50 / nM: 1000
//
compound: O=c1n(Cc2nc(OC3CCOC3)c3ccc(Cl)cc3n2)c2ncccc2n1C1CC1 (stereo not drawn)
EC50 / nM: 200
//
compound: N#Cc1cc2ccccc2n(Cc2nc(OC3CCOC3)c3ccccc3n2)c1=O (stereo not drawn)
EC50 / nM: 1600
//
compound: O=c1n(Cc2nc(OCC3CCOC3)c3cccc(Cl)c3n2)c2cnccc2n1C1CC1 (stereo not drawn)
EC50 / nM: 710
//
compound: Cc1cc2n(Cc3nc(N(C)Cc4cnn(C)c4)c4ccccc4n3)c(=O)c3ccccc3n2n1
EC50 / nM: 10
//
compound: O=c1n(Cc2nc(OC3CCOC3)c3ccccc3n2)c2ncccc2n1C1CC1 (stereo not drawn)
EC50 / nM: 170
//
compound: Cc1ncn2c3ccccc3c(=O)n(Cc3nc(OC4CCOC4)c4ccccc4n3)c12 (stereo not drawn)
EC50 / nM: 25
//
compound: O=c1n(Cc2nc(OC3CCOC3)c3ccc(Cl)cc3n2)c2cnccc2n1C1CC1 (stereo not drawn)
EC50 / nM: 29
//
compound: Cc1cc(CN(C)c2nc(Cn3c(=O)n(C4CC4)c4ccncc43)nc3ccccc23)on1
EC50 / nM: 590
//
compound: O=c1n(Cc2nc(OC3CCOC3)c3ccccc3n2)c2cnccc2n1C1CC1 (stereo not drawn)
EC50 / nM: 110
//
compound: Cc1c(C#N)c(=O)n(Cc2nc(OC3CCOC3)c3ccccc3n2)c2ccccc12 (stereo not drawn)
EC50 / nM: 79
//
compound: Cc1cc2n(Cc3nc(OC4CCOC4)c4ccccc4n3)c(=O)c3ccccc3n2n1 (stereo not drawn)
EC50 / nM: 6.6
//
compound: N#Cc1ccc2nc(Cn3c(=O)n(C4CC4)c4ccncc43)nc(OCC3CCOC3)c2c1 (stereo not drawn)
EC50 / nM: 140
//
compound: Cc1ccc2c(OCC3CCOC3)nc(Cn3c(=O)n(C4CC4)c4ccncc43)nc2c1 (stereo not drawn)
EC50 / nM: 28
//
compound: O=c1n(Cc2nc(OCC3CCOC3)c3ccccc3n2)c2cccnc2n1C1CC1 (stereo not drawn)
EC50 / nM: 490
//
compound: COc1cccc2c(=O)n(Cc3nc(N(C)Cc4cnn(C)c4)c4ccccc4n3)c3cc(C)nn3c12
EC50 / nM: 31
//
compound: O=c1n(Cc2nc(OC3CCOC3)c3ccc(Cl)cc3n2)c2cccnc2n1C1CC1 (stereo not drawn)
EC50 / nM: 380
//
compound: Cn1c(=O)n(Cc2nc(OCC3CCOC3)c3ccccc3n2)c2ccccc21 (stereo not drawn)
EC50 / nM: 480
//
compound: CCc1cc2n(Cc3nc(OC4CCOC4)c4ccccc4n3)c(=O)c3ccccc3n2n1 (stereo not drawn)
EC50 / nM: 8.8
//
compound: O=c1c2ccccc2n2nccc2n1Cc1nc(OC2CCOC2)c2ccccc2n1 (stereo not drawn)
EC50 / nM: 21
//
compound: O=c1n(Cc2nc(OCC3CCOC3)c3c(Cl)cccc3n2)c2cnccc2n1C1CC1 (stereo not drawn)
EC50 / nM: 280
//
compound: Cc1cc2n(Cc3nc(OCC4CCOC4)c4ccc(Br)cc4n3)c(=O)c3ccccc3n2n1 (stereo not drawn)
EC50 / nM: 1700
//
compound: CN(Cc1cnn(C)c1)c1nc(Cn2c(=O)c3ccccc3n3ncc(C#N)c23)nc2ccccc12
EC50 / nM: 400
//
compound: Cc1cc2n(Cc3nc(N(C)Cc4cnn(C)c4)c4ccccc4n3)c(=O)c3ccncc3n2n1
EC50 / nM: 15
//
compound: CS(=O)(=O)CCCOc1nc(Cn2c(=O)n(C3CC3)c3ccncc32)nc2cc(Cl)ccc12
EC50 / nM: 43
//
compound: Cc1cc2n(Cc3nc(OCC4CCOC4)c4ccccc4n3)c(=O)c3ccccc3n2n1 (stereo not drawn)
EC50 / nM: 16
//
compound: Cc1ncc2n(Cc3nc(OC4CCOC4)c4ccccc4n3)c(=O)c3ccccc3n12 (stereo not drawn)
EC50 / nM: 93
//
compound: CN(Cc1cnn(C)c1)c1nc(Cn2c(=O)c3ccccc3n3cncc23)nc2ccccc12
EC50 / nM: 470
//
compound: O=c1n(Cc2nc(OC3COC3)c3ccc(Cl)cc3n2)c2cnccc2n1C1CC1
EC50 / nM: 63
//
compound: O=c1n(Cc2nc(OCCCO)c3ccccc3n2)c2cnccc2n1C1CC1
EC50 / nM: 260
//
compound: Cc1cc2n(Cc3nc(OCC4CCOC4)c4cc(C#N)ccc4n3)c(=O)c3ccccc3n2n1 (stereo not drawn)
EC50 / nM: 2.8
